experimental_system: KAT7+BRPF1+EAF6+ING5 4 protein complex (Homo sapiens (Human), UniProt O95251)
assay_details: KAT7 BRPF1 assay (SAMDI-MS acetylation of H3 1-21 peptide)
Assay type: biochemical
conditions_used: Morrison equation fit; replicate number in parentheses
The following compounds are shown together with reported Ki values.

Examples with their reported Ki follow.
{"columns": ["compound", "Ki"],
 "data": [
  ["CCOc1ccccc1S(=O)(=O)Nc1noc2cc(Nc3cc[nH]n3)c(OC)cc12 [Example 28]", "97.1 nM"],
  ["COc1cc2c(NS(=O)(=O)c3c(OC)cccc3OC)noc2cc1Nc1cc(CC(C)C)n[nH]1 [Example 114]", "2.1 nM"],
  ["COc1cc2c(NS(=O)(=O)c3c(OC)cccc3OC)noc2cc1Nc1c(C#N)c(C)nn1C [Example 46]", "> 16100 nM"]
]}

# next compound below
Query block: Which Ki reading was recorded for the compound COc1cc2c(NS(=O)(=O)c3c(OC)cc(C4CCCCN4C)cc3OC)noc2cc1Nc1cc(C2CC2)n[nH]1 (racemic) [Example 155] ?
Result block: 14.9 nM

Hey, just so you know, these numbers are from patent US20250122183A1.
